# PROTOCOL: in vitro
# TEST_SETTINGS: human, Caco-2
RECORDED_ENDPOINT: Papp A→B (×10⁻⁶ cm/s)
Express it in ×10⁻⁶ cm/s; write the number only.

I would be grateful if you could share the reported Papp A→B for O=C(CCCCCCC(=O)Nc1ccccc1)NO [SAHA, suberanoyl hydroxamic acid, reference compound] .
14

Source of measurements: patent US20140294856A1
